Provenance of the data: the supplement of paper PMC12764529

- assay_text: folding stability dG unfold from chymotrypsin proteolysis; higher = more stable
readout_name: folding stability dG unfold (kcal/mol)
Value expressed in kcal/mol; do not type the unit.

Please review the entries below; each comes with its answer.
SAGGSAGGSAGGMLSGQVIEVTIPPERRLVRVEKLPSGDYLITIYRPDEPKPLETLRIRASAGGSAGGSAGG [r7_620_JUSTAS] = 1.92
SAGGRIKDIEPIPPNDPPGQKLTIKFPDGGPIEIPMEKEPDENGPYYYKFKLQVNNGEIEVMFRIPNSAGGS [r8_360_TrROS] = 5.47

Give recorded folding stability dG unfold. GEVVERLKLPDLELVEVRTTTEGDTTFVYVKLKRPDSYYVVKLTVTPATGEVTVTEEKKVSPNETLEEVLAS [r1_383_JUSTAS]
2.76

Report folding stability dG unfold, nothing else, for this sequence: SAKLPEGAVVVIEDIEEKEVNGKKYKTIKISVYDKKNKGKLIAETEIVVENGKIVEKKVKVKKVSKEELSAG [r14_651_TrROS_Hall]
2.05

Tell me its folding stability dG unfold given SAGGSAGGSAGSMSVSVTKLPNGDYVVTTTTSETSTSTTGSTPVTTTTTTTTVTTLPSSSSAGGSAGGSAGG [r17_432_JUSTAS] as the entry.
0.775

Find the measured folding stability dG unfold of SAGGKKPKIEVKIEFDEETGKLRIEIRTEDGKLIAEKEIEIDGVLFKVKVIVKDGKLVIEIEAFPKKSAGGS [r16_631_TrROS_Hall] and report it.
3.99

Hello, please tell me recorded folding stability dG unfold for this one: SAGGSAGGSAGGSGPPSLPGVLVEIPEPLPGPEGTEFSDPKGYKYTYDPSNGKVLVERASAGGSAGGSAGGS [r4_78_JUSTAS]
-0.0458

====

- assay_text: folding stability dG unfold (combined trypsin and chymotrypsin); higher = more stable
Records here are stratified by folding stability dG unfold; strata: low-valued (below 1 kcal/mol), mid-valued (1 kcal/mol to below 3 kcal/mol), high-valued (3 kcal/mol or more)

As a guide, the following entries are already answered.
SAGDAIADLLKEAGFEIDSVDSIEPTDGSYVIGFKFEFPNGWYMEITIWIDPNNPDKIEIDIKMQPPDESAG [r5_683_TrROS] = high-valued
SAGGSAGGSGMERVEAVREALVPGDPDAVPAPITYDPQTGKLTYSVSDPRVAAALAADPLVSLSAGGSAGGS [r12_623_JUSTAS] = low-valued
SAGGSAGGSAGMEFEVLEVIPPELLAEGGEITVGLPDGERLLVRVSPDGGVKEVRLLPPESAGGSAGGSAGG [r17_2_TrMRF] = low-valued

Lab note: sort SAGGMITLEIELEDGTKIKIEITRLVSYDEEKGYAIFEAKITVEKDGKKFEKTITIIVKKGTKPGEIISAGG [r13_823_TrROS_Hall] into the matching folding stability dG unfold band.
high-valued

Class for SKTYLVKVTIEYGGKTIEIEVEVETLEEALAAVRAALPPEERAQLPPDAKVTVEVYELPEVDEETGELLESA [r9_111_TrROS_Hall] ?
high-valued

Place this sequence in its band: SAGGSAGGSAGGNNLYSTSTTVLSTVPVRPDETVTRPGTGAPVSPSETVALSTTSTAPSLSAGGSAGGSAGG [r11_793_JUSTAS]
low-valued

Into which bin does this sequence go? SAGGSAGGSAGGSMTVTLSREELLRLLGVPPGVPIPESVLAKIKSIETLPDGSVTVTIGSAGGSAGGSAGGS [r4_369_JUSTAS]
mid-valued

Into which category would you place SAGGSAGGSAGGDDDWRIMINIEIWPYPNYVRIRFPIMIIPPDGKLIGSVEVTFWIPANDSAGGSAGGSAGG [r7_812_TrROS] ?
high-valued

Entry SAGGSAGGSAGGGWAEIEIKITIFVFDPGNMTLFMVTLEPRIEVPPVKRDPDNGKWKPDSAGGSAGGSAGGS [r10_815_TrROS] belongs to which category?
high-valued

Please report the category associated with SAGGLEEIAEKIAEELKKKGYKAEIKEVVKPPTNEVVIKYTVTYKDKNEIIEEEEKEITFKLPPGLESAGGS [r8_102_JUSTAS] , nothing else.
low-valued

The entry to classify is SAGGMTIEKEDGKYRITITINGKTYTFTIPKELENKTEEEIAAELAAELAEKFGLKEITEIKIEKVPSAGGS [r8_402_TrROS_Hall] ; which class holds it?
high-valued

Form: Item = SAGEEPPEVTIKVVEKDGKLVIEVEYNGKTLTITLEDGEKIEIKFPEGMSEEELLEEAKRLAKELAEKSAGG [r19_170_TrROS_Hall] ; Class = ?
mid-valued

For SAGGSAGGSAKVKAEIEYDPATGKITIKLITEDERGGKTEEAEITIPIPIPAPPAPPADVDKSAGGSAGGSA [r18_361_TrMRF] , which folding stability dG unfold bin applies?
mid-valued

Class for SAGGSPEEIANEVKEKILKELPPGVKVEVSVEVTPEGATVTVKVPEGKEYTVKVEGDKIVEIKLLKKSAGGS [r8_287_JUSTAS] ?
mid-valued

Band for SAGGSAPPIEIEIDKWERDPENGYVYATVKIKLPGKKIEIPIWMDDPPGQAENQVKMLAENIARQLSAGGSA [r15_979_TrROS] ?
mid-valued

Class? Entry: SAGGSAGGDGDFRVSIDPEELPDGQEYKISIQSPDGKPIAEIPIRIPLPPPKPERDDNGKPKPVSAGGSAGG [r6_487_TrROS]
low-valued

For this sequence, which bin applies? SAGGSAGGSAGGSSSMVEVEVESEEELEAYLEPLAARGVEVTLTSRDPETGRWLLRVTPPSAGGSAGGSAGG [r7_964_JUSTAS]
low-valued

====

- assay_text: folding stability dG unfold from chymotrypsin proteolysis; higher = more stable
Recorded folding stability dG unfold by entry
Reply numerically in kcal/mol, unit not repeated.

SAGMMKVRIKIEVTRVEYDEETGELKEETRTIEIPIEAESEEEAEELAKKLAEELPEEEVKIVEIEPLSAGG [r19_209_TrROS_Hall] = 1.42

Look up and report measured folding stability dG unfold for this entry: SAGMVVVKVTLPGPEEALRAAAAAVPVPVSIERDPEKPDVWTATITFPSPELAPVFVEAFAALGAEVVGSAG [r14_745_JUSTAS]
1.29

Using known records, supply folding stability dG unfold for SAGITLHPDARIILKNPSTGEKIELRSETIRRLIAEILGTDRPEEITAEQINAFALSLGFEEAEFEEPSAGG [r19_67_TrMRF]
3.31

Annotate the sequence SMSLVVSEEVDPATGTTTVTTTFPSPGVTVTATASAAGDSVTTTVTTTSPAPSAPTTTTTTTPVAPPGTDAS [r1_404_JUSTAS] with its measured folding stability dG unfold.
-0.3

Please list folding stability dG unfold recorded for the sequence SAGGSAGGDEIADKVKDLLRKHGWPVKEVEVTVMPHPPGRVYVMIEITMEHPGKKWTMEIMVEVSAGGSAGG [r6_533_TrROS]
4.79

Query folding stability dG unfold for SAGGGRVAVLKVEVRNPETGETTEVELVLPLPPEMTPEEAEEAAREAARTLAESTGVEVEIKSVELLSAGGS [r8_312_TrMRF]
3.28

Supply measured folding stability dG unfold of SAGGSAETLTITLTVKPGETVTIKALFKAEDGSVYAVTATFTAEDEGTVTITVTRLPPGVKDLADLSAGGSA [r15_909_TrROS_Hall] in your reply.
4.71

====

- assay_text: folding stability dG unfold (combined trypsin and chymotrypsin); higher = more stable
Quick rule: folding stability dG unfold of at least 3 kcal/mol means true (1), below that means false (0).

Example cases with answers are listed next.
SAMTLRIELTKEELEKLIKELKPGDEVELEIEVNGRTYRIRAKITRIERVDDKVYIEVELEIEELPEEESAG [r14_335_TrROS_Hall] = true (1)
SMVEIKVEPEKSIIKATLTLKDKTVEEIKQLAKEYFEKLGYKIKVEVKEVKTFEDSVTLKFEIKVPKGLVSA [r9_347_JUSTAS] = false (0)
SAGGMPEGDFWVRIRIPVPKYEMERDPNDPNDYKMEPEWKPKEIWLPVKSPEALDEFRENGFEIEPFSAGGS [r8_482_TrROS] = false (0)
SAGGEIEILLEDGTLLRIRVELDEDGNLRVTVELFRLEPPPAPEVVVERREEREERRVLFADSAEDLSAGGS [r16_802_TrROS_Hall] = false (0)
SAGGSADVKITEVHNPHRNPNGRPFFMVRIKWPDNGTHTIMMNPNDLDDLLAQLPPNWKIDEIHPISAGGSA [r15_339_TrROS] = false (0)

Test whether the sequence SSMSIEIKEVEEDPVGSEAKPRVVREKVTLEGTEVELTVTVTEAPSGETTVTTTLTFPGSGKTFSFTFDTSA [r9_241_JUSTAS] records folding stability dG unfold of 3 kcal/mol or higher.
false (0)

Is it the case that SWWYIVTIKIWKPGNGEPKGPIMLFVRSPEEAEEIAEEPAPEHGYDVEVNVKRIPPDDMDDPEQMKEMMNSA [r9_864_TrROS] has folding stability dG unfold reaching or exceeding 3 kcal/mol?
false (0)

# check: folding stability dG unfold of SAGGSAGGSAGGKNMQEVPFPIEIKDPKNGKKIKIPVEVRRNPDDGKYQITPEALEELIKSAGGSAGGSAGG [r7_557_TrROS] is greater than or equal to 3 kcal/mol
false (0)
